Attribution: BindingDB's records for doi:10.7270/Q2SX6BMJ

pIC50 reference
Target: Alkaline phosphatase, tissue-nonspecific isozyme (Homo sapiens)
Sequence (P05186 whole entry): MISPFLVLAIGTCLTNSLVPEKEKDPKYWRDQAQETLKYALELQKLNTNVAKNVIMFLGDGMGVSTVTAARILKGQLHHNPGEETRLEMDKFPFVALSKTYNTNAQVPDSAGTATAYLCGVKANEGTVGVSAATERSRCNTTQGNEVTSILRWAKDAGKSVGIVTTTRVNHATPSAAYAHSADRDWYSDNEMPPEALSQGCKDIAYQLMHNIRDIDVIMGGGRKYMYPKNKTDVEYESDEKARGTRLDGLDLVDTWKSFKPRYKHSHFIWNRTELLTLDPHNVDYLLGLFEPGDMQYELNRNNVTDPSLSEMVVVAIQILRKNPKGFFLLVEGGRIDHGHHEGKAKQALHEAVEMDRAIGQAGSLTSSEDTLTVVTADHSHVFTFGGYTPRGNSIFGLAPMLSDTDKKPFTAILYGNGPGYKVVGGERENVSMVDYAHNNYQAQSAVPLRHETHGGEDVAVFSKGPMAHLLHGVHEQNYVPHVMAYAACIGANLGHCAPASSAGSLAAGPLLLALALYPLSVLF
Assay: human TNAP enzyme inhibitors, biochemical, luminescent (AID 518)
pIC50: −log10 of the molar value.

As a guide, the following entries are already answered.
{"compound": "O=C(O)c1cc(-c2ccc(Cl)cc2)n[nH]1", "pIC50": 5.57}
{"compound": "O=c1c(=Cc2ccco2)sc2nc(-c3ccccc3Br)nn12", "pIC50": "< 4.00"}

Ask | Entry under review: c1ccc(-n2ncc3c2ncn2cnnc32)cc1 [MLS000048783] . Reported pIC50?
Reply | < 4.00

Ask | Entry under review: CCc1ccc(OCc2nc(-c3ccccn3)no2)c(Br)c1 . Reported pIC50?
Reply | < 4.00

Ask | Entry under review: Cc1ccc(-n2c(Cc3cccn3C)nnc2SCC(=O)Nc2nnc(C)s2)cc1 . Reported pIC50?
Reply | < 4.00

Ask | Entry under review: CC1(C)Cc2c(sc3nc4n(c(=N)c23)CCCCC4)CO1 [SMR000039131] . Reported pIC50?
Reply | 5.02
